The origin of these recorded values is the supplement of paper PMC11865577.

Reported pull-down binding Z-score is given for each of the following sequences.
# System: TO-3-N3-2 (biotin conjugate)
# EXPERIMENT_NOTES: pull-down binding Z-score (relative to library population); higher = stronger binding
# SETTINGS: RNA library: Library-2
Number only, please.

// worked examples, pull-down binding Z-score included
>  <SEQUENCE_INPUT>
AGGUUUAUGACUGGGCAUUUCUCACCCAAUGCCCAAUAUUGAACUU [hsa-mir-4431]

>  <pull-down binding Z-score>
-0.213

$$$$
>  <SEQUENCE_INPUT>
CCUGCCUGCCCUCCAGGUCAUGUUCCAGUGUCCCACAGAUGCAGCACCACGG [hsa-mir-6075]

>  <pull-down binding Z-score>
0.186

$$$$

In: Could you share what pull-down binding Z-score was measured for GGUGGCAAACCUUGUAUCAAAGUAGCCACU [SHAPE_invitro_SARS-CoV-2_Motif_216] , tested on TO-3-N3-2 (biotin conjugate)?
Out: -0.373

In: Could you share what pull-down binding Z-score was measured for UGGUAAUGCUGCUAUCAGCGAUUAUGACUACUAUCGUUAUAAUCUACCA , tested on TO-3-N3-2 (biotin conjugate)?
Out: -0.385

In: Could you share what pull-down binding Z-score was measured for AUUUUCACUUAAU [hsa-mir-302f] , tested on TO-3-N3-2 (biotin conjugate)?
Out: -0.267
